Source listed as the RNAGym collection of RNA variant scans (doi:10.7554/elife.80360).

# key: entry, value: self-cleavage
B1: HDV Ribozyme (parent)
chain: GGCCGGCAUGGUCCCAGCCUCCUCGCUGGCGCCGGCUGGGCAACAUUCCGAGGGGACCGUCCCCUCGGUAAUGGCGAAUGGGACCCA

- Variants of: B1
- EXPERIMENT SUMMARY: self-cleavage, relative activity (ratio to wild type); higher = more cleavage; co-transcriptional
// keep it numeric: no unit symbol after the value

Some variants with recorded self-cleavage:
>  <VARIANT NOTATION>
A77C U79A

>  <self-cleavage>
0.297

$$$$
>  <VARIANT NOTATION>
C18U

>  <self-cleavage>
0.732

$$$$
>  <VARIANT NOTATION>
G55U A71G

>  <self-cleavage>
1.04

$$$$
>  <VARIANT NOTATION>
G1U A42C

>  <self-cleavage>
0.332

$$$$
>  <VARIANT NOTATION>
U37G G55A

>  <self-cleavage>
0.0831

$$$$

Documented self-cleavage of C14A C19U : 0.182

Documented self-cleavage of G40U C44U : 0.143

Documented self-cleavage of U27C G82A : 0.396

Documented self-cleavage of G11C G35C : 0.151

Documented self-cleavage of G28C G39C : 0

Documented self-cleavage of G10U C62U : 0.722

Documented self-cleavage of G35C C64U : 0.348

Documented self-cleavage of A8U C19U : 0.0308

Documented self-cleavage of C30U U60A : 0.69

Documented self-cleavage of U60A G82U : 0.35

Documented self-cleavage of C33A U47G : 0.378

Documented self-cleavage of A71C A83U : 0.297

Documented self-cleavage of G28A G81U : 0.0287

Documented self-cleavage of C19U G53A : 0.229

Documented self-cleavage of U23C C49A : 0.987

Documented self-cleavage of G29A C84A : 0.245

Documented self-cleavage of U47G G74A : 0.435
